conditions: in methanol, 313.15 K

- line.notation: "CCOc1cccc(C=O)c1O"
  solubility (mole fraction): 0.434

---

conditions: in ethanol, 278.15 K

- line.notation: "CCOc1cccc(C=O)c1O"
  solubility (mole fraction): 0.0153

---

conditions: in water, 278.15 K

- line.notation: "CCOc1cccc(C=O)c1O"
  solubility (mole fraction): "5.24e-05"

---

settings: in n-propanol, 298.15 K
recorded.endpoint: solubility (mole fraction)

- line.notation: "CCOc1cccc(C=O)c1O"
  reading: 0.0576

---

settings: in methanol, 303.15 K
recorded.endpoint: solubility (mole fraction)

- line.notation: "CCOc1cccc(C=O)c1O"
  reading: 0.211

---

conditions: in methyl acetate, 293.15 K

- line.notation: "CCOc1cccc(C=O)c1O"
  solubility (mole fraction): 0.281

---

details: in acetonitrile, 298.15 K
recorded.endpoint: solubility (mole fraction)

- line.notation: "CCOc1cccc(C=O)c1O"
  recorded.endpoint: "solubility (mole fraction)"
  reading: 0.303

---

conditions: in methyl acetate, 308.15 K

- line.notation: "CCOc1cccc(C=O)c1O"
  solubility (mole fraction): 0.475

---

details: in n-butyl acetate, 313.15 K
recorded.endpoint: solubility (mole fraction)

- line.notation: "CCOc1cccc(C=O)c1O"
  recorded.endpoint: "solubility (mole fraction)"
  reading: 0.409

---

conditions: in acetone, 283.15 K
recorded.endpoint: solubility (mole fraction)

- line.notation: "CCOc1cccc(C=O)c1O"
  recorded.endpoint: "solubility (mole fraction)"
  reading: 0.217

---

conditions: in n-butanol, 283.15 K
recorded.endpoint: solubility (mole fraction)

- line.notation: "CCOc1cccc(C=O)c1O"
  reading: 0.0206

---

conditions: in methyl acetate, 313.15 K

- line.notation: "CCOc1cccc(C=O)c1O"
  solubility (mole fraction): 0.563

---

conditions: in methanol, 283.15 K

- line.notation: "CCOc1cccc(C=O)c1O"
  solubility (mole fraction): 0.0355

---

conditions: in acetonitrile, 293.15 K
recorded.endpoint: solubility (mole fraction)

- line.notation: "CCOc1cccc(C=O)c1O"
  recorded.endpoint: "solubility (mole fraction)"
  reading: 0.254

---

conditions: in n-butyl acetate, 303.15 K

- line.notation: "CCOc1cccc(C=O)c1O"
  solubility (mole fraction): 0.281

---

conditions: in methanol, 293.15 K
recorded.endpoint: solubility (mole fraction)

- line.notation: "CCOc1cccc(C=O)c1O"
  reading: 0.0786

---

details: in n-propanol, 288.15 K

- line.notation: "CCOc1cccc(C=O)c1O"
  solubility (mole fraction): 0.0262

---

settings: in ethanol, 298.15 K
recorded.endpoint: solubility (mole fraction)

- line.notation: "CCOc1cccc(C=O)c1O"
  reading: 0.0662

---

settings: in ethanol, 308.15 K
recorded.endpoint: solubility (mole fraction)

- line.notation: "CCOc1cccc(C=O)c1O"
  reading: 0.145

---

settings: in n-butyl acetate, 278.15 K

- line.notation: "CCOc1cccc(C=O)c1O"
  solubility (mole fraction): 0.0985

---

details: in acetonitrile, 283.15 K

- line.notation: "CCOc1cccc(C=O)c1O"
  solubility (mole fraction): 0.154

---

conditions: in acetone, 278.15 K
recorded.endpoint: solubility (mole fraction)

- line.notation: "CCOc1cccc(C=O)c1O"
  recorded.endpoint: "solubility (mole fraction)"
  reading: 0.155

---

settings: in n-propanol, 278.15 K
recorded.endpoint: solubility (mole fraction)

- line.notation: "CCOc1cccc(C=O)c1O"
  recorded.endpoint: "solubility (mole fraction)"
  reading: 0.0145

---

conditions: in n-butanol, 313.15 K

- line.notation: "CCOc1cccc(C=O)c1O"
  solubility (mole fraction): 0.164

---

conditions: in acetonitrile, 278.15 K

- line.notation: "CCOc1cccc(C=O)c1O"
  solubility (mole fraction): 0.104

---

settings: in water, 313.15 K

- line.notation: "CCOc1cccc(C=O)c1O"
  solubility (mole fraction): 0.000191

---

details: in water, 288.15 K
recorded.endpoint: solubility (mole fraction)

- line.notation: "CCOc1cccc(C=O)c1O"
  recorded.endpoint: "solubility (mole fraction)"
  reading: "7.32e-05"

---

settings: in acetone, 288.15 K

- line.notation: "CCOc1cccc(C=O)c1O"
  solubility (mole fraction): 0.272

---

settings: in isopropanol, 313.15 K

- line.notation: "CCOc1cccc(C=O)c1O"
  solubility (mole fraction): 0.151

---

conditions: in water, 308.15 K
recorded.endpoint: solubility (mole fraction)

- line.notation: "CCOc1cccc(C=O)c1O"
  reading: 0.000155

---

settings: in isopropanol, 283.15 K

- line.notation: "CCOc1cccc(C=O)c1O"
  solubility (mole fraction): 0.0143

---

settings: in ethyl acetate, 308.15 K
recorded.endpoint: solubility (mole fraction)

- line.notation: "CCOc1cccc(C=O)c1O"
  recorded.endpoint: "solubility (mole fraction)"
  reading: 0.403

---

conditions: in methanol, 288.15 K
recorded.endpoint: solubility (mole fraction)

- line.notation: "CCOc1cccc(C=O)c1O"
  recorded.endpoint: "solubility (mole fraction)"
  reading: 0.0567

---

conditions: in ethyl acetate, 303.15 K

- line.notation: "CCOc1cccc(C=O)c1O"
  solubility (mole fraction): 0.344

---

settings: in ethyl acetate, 288.15 K
recorded.endpoint: solubility (mole fraction)

- line.notation: "CCOc1cccc(C=O)c1O"
  recorded.endpoint: "solubility (mole fraction)"
  reading: 0.209

---

conditions: in n-propyl acetate, 283.15 K

- line.notation: "CCOc1cccc(C=O)c1O"
  solubility (mole fraction): 0.136

---

settings: in n-propyl acetate, 303.15 K

- line.notation: "CCOc1cccc(C=O)c1O"
  solubility (mole fraction): 0.312

---

conditions: in isopropanol, 288.15 K

- line.notation: "CCOc1cccc(C=O)c1O"
  solubility (mole fraction): 0.0197

---

conditions: in n-propanol, 303.15 K

- line.notation: "CCOc1cccc(C=O)c1O"
  solubility (mole fraction): 0.0824

---

settings: in n-butyl acetate, 288.15 K

- line.notation: "CCOc1cccc(C=O)c1O"
  solubility (mole fraction): 0.158

---

conditions: in isopropanol, 303.15 K

- line.notation: "CCOc1cccc(C=O)c1O"
  solubility (mole fraction): 0.0642

---

details: in ethyl acetate, 278.15 K

- line.notation: "CCOc1cccc(C=O)c1O"
  solubility (mole fraction): 0.134

---

details: in ethanol, 303.15 K
recorded.endpoint: solubility (mole fraction)

- line.notation: "CCOc1cccc(C=O)c1O"
  reading: 0.102

---

conditions: in ethyl acetate, 298.15 K
recorded.endpoint: solubility (mole fraction)

- line.notation: "CCOc1cccc(C=O)c1O"
  reading: 0.294

---

conditions: in methyl acetate, 303.15 K

- line.notation: "CCOc1cccc(C=O)c1O"
  solubility (mole fraction): 0.388

---

conditions: in isopropanol, 298.15 K

- line.notation: "CCOc1cccc(C=O)c1O"
  solubility (mole fraction): 0.0437

---

conditions: in ethyl acetate, 313.15 K
recorded.endpoint: solubility (mole fraction)

- line.notation: "CCOc1cccc(C=O)c1O"
  recorded.endpoint: "solubility (mole fraction)"
  reading: 0.497

---

conditions: in n-butyl acetate, 298.15 K

- line.notation: "CCOc1cccc(C=O)c1O"
  solubility (mole fraction): 0.237

---

details: in isopropanol, 293.15 K

- line.notation: "CCOc1cccc(C=O)c1O"
  solubility (mole fraction): 0.0284

---

conditions: in water, 283.15 K

- line.notation: "CCOc1cccc(C=O)c1O"
  solubility (mole fraction): "6.55e-05"

---

details: in methyl acetate, 283.15 K

- line.notation: "CCOc1cccc(C=O)c1O"
  solubility (mole fraction): 0.185

---

settings: in n-butanol, 303.15 K

- line.notation: "CCOc1cccc(C=O)c1O"
  solubility (mole fraction): 0.0795

---

details: in ethanol, 288.15 K

- line.notation: "CCOc1cccc(C=O)c1O"
  solubility (mole fraction): 0.0287

---

conditions: in acetonitrile, 303.15 K

- line.notation: "CCOc1cccc(C=O)c1O"
  solubility (mole fraction): 0.352

---

conditions: in n-butanol, 293.15 K
recorded.endpoint: solubility (mole fraction)

- line.notation: "CCOc1cccc(C=O)c1O"
  reading: 0.0398

---

conditions: in methyl acetate, 298.15 K
recorded.endpoint: solubility (mole fraction)

- line.notation: "CCOc1cccc(C=O)c1O"
  reading: 0.335

---

details: in ethanol, 283.15 K

- line.notation: "CCOc1cccc(C=O)c1O"
  solubility (mole fraction): 0.0195

---

conditions: in n-propyl acetate, 298.15 K

- line.notation: "CCOc1cccc(C=O)c1O"
  solubility (mole fraction): 0.248

---

conditions: in isopropanol, 308.15 K

- line.notation: "CCOc1cccc(C=O)c1O"
  solubility (mole fraction): 0.0925

---

conditions: in n-propanol, 308.15 K

- line.notation: "CCOc1cccc(C=O)c1O"
  solubility (mole fraction): 0.124
